# TARGET_ENTITY: Cyclin-dependent kinase 2/cyclin A (Homo sapiens, UniProt P24941)
# ASSAY_EXPLANATION: Inhibition of CDK2/Cyclin A
Task for the reader: assign each of the following compounds its reported IC50.

SMILES_REPRESENTATION: NC(=O)c1sc2c([N+](=O)[O-])cc(C(F)(F)F)cc2[n+]1[O-]
TARGET_ENTITY: Cyclin-dependent kinase 2/cyclin A (Homo sapiens, UniProt P24941)
RESULT: > 100 µM

Field: next compound
Suppose we examine the compound NC(=O)c1sc2c([N+](=O)[O-])cc(SC(F)(F)F)cc2[n+]1[O-] ; what IC50 value has been reported? > 100 µM

* * *

The following compounds each carry a recorded IC50 for Serine/threonine-protein kinase PLK1 (Homo sapiens, UniProt P53350).
One number for each entry, in µM.

SMILES_REPRESENTATION: CNc1nc(C)c(-c2ccnc(Nc3ccc(O)cc3)n2)s1
IC50 (µM): 10

Suppose we examine the compound Cc1nc(N)sc1-c1ccnc(Nc2ccc(O)cc2)n1 ; what IC50 value has been reported? 25

* * *

# ASSAY_EXPLANATION: Inhibition of P70S6K
pIC50: −log10 of the molar value.
Task for the reader: assign each of the following compounds its reported pIC50.

SMILES_REPRESENTATION: NC(=O)c1sc2c([N+](=O)[O-])cc(SC(F)(F)F)cc2[n+]1[O-]
pIC50: < 4.00

Field: next compound
Suppose we examine the compound NC(=O)c1sc2c([N+](=O)[O-])cc(C(F)(F)F)cc2[n+]1[O-] ; what pIC50 value has been reported? < 4.00

* * *

The following compounds each carry a recorded pIC50 for Glycogen synthase kinase-3 alpha (Homo sapiens).
pIC50: −log10 of the molar value.

SMILES_REPRESENTATION: NC(=O)c1sc2c([N+](=O)[O-])cc(SC(F)(F)F)cc2[n+]1[O-]
TARGET_ENTITY: Glycogen synthase kinase-3 alpha (Homo sapiens)
Sequence (P49840 whole entry): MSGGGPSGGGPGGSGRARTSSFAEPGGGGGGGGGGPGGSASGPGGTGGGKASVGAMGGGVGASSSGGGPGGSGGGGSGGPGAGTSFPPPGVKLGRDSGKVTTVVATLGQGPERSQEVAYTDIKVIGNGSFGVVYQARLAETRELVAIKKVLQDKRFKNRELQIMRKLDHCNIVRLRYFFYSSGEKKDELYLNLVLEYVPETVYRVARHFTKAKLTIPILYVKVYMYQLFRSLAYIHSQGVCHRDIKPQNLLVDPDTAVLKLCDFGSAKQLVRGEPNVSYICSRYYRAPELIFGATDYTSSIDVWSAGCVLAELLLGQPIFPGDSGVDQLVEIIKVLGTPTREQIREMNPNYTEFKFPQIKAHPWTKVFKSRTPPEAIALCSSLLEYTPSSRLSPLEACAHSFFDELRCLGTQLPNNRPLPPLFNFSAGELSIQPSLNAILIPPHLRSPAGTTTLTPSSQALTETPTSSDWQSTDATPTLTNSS
pIC50: < 4.00

Field: next compound
Suppose we examine the compound NC(=O)c1sc2c([N+](=O)[O-])cc(C(F)(F)F)cc2[n+]1[O-] ; what pIC50 value has been reported? < 4.00

* * *

pIC50: −log10 of the molar value.
The following compounds each carry a recorded pIC50 for Protein kinase C alpha type (Homo sapiens, UniProt P17252).

Quick batch: pIC50 for everything below.
1. NC(=O)c1sc2c([N+](=O)[O-])cc(C(F)(F)F)cc2[n+]1[O-]
2. NC(=O)c1sc2c([N+](=O)[O-])cc(SC(F)(F)F)cc2[n+]1[O-]

1. < 4.00
2. < 4.00

* * *

# TARGET_ENTITY: Cyclin-dependent kinase 2/cyclin E1 (Homo sapiens)
# ASSAY_EXPLANATION: Inhibition of CDK2/Cyclin E
pIC50: −log10 of the molar value.
Task for the reader: assign each of the following compounds its reported pIC50.

COMPOUND: NC(=O)c1sc2c([N+](=O)[O-])cc(SC(F)(F)F)cc2[n+]1[O-] [CYCLAPOLIN 1]
TARGET_ENTITY: Cyclin-dependent kinase 2/cyclin E1 (Homo sapiens)
RESULT: < 4.00

Field: next compound
API: value(readout= pIC50, system= Cyclin-dependent kinase 2/cyclin E1 (Homo sapiens), query= NC(=O)c1sc2c([N+](=O)[O-])cc(C(F)(F)F)cc2[n+]1[O-] [CYCLAPOLIN 9] ) < 4.00

Each recorded value in this set is attributed to ChEMBL document CHEMBL1221191.
